Experiment: qHTS assay to identify small molecule agonists of the AP-1 signaling pathway - cell viability counter screen (AID 1159525); further: nearly all actives have a fitted effect of over 55% in size
Settings: ME-180 (cervical carcinoma) AP-1-bla cells viability, ATP luminescence, 5 h; series mostly up to 76.8 µM
Description: National Center for Advancing Translational Sciences [NCATS] NIH Chemical Genomics Center [NCGC] U.S. Environmental Protection Agency [EPA] National Institutes of Environmental Health Sciences [NIEHS] National Toxicology Program [NTP] […] After the plates were read for Beta-Lactamase assay on Envision; 3 ul Cell Titer Glo (Promega) was added to measure the cytotoxicity and the plates were then incubated at RT in dark for 30 min. […] ViewLux data was expressed as relative luminescence units. […]
Inconclusive results are not listed. The source made the active and inactive calls. The call rests on the fitted dose curve.
Log the outcome using a class from active, inactive

Reference set, count: 5
{"Compound": "Cc1cccc(N(C)C)c1", "Assigned Label": "inactive"}
{"Compound": "Brc1ccccn1", "Assigned Label": "inactive"}
{"Compound": "CC1CCCNC1 (stereo not given)", "Assigned Label": "inactive"}
{"Compound": "CCCCNc1c(C(=O)OCC)c(C)nc2c1cnn2CC", "Assigned Label": "inactive"}
{"Compound": "Cc1cccc(C)n1", "Assigned Label": "inactive"}

Task item: Hi team, can someone confirm the assay call for `COC(=O)CC#N` ?
Reply: inactive

Task item: Input `SCCCCCCCCS`
Reply: inactive

Task item: Input `Clc1cc(Cl)c(-c2c(Cl)c(Cl)cc(Cl)c2Cl)cc1Cl`
Reply: inactive

Task item: Input CC(NCCC(c1ccccc1)c1ccccc1)c1ccccc1 (stereo not given)
Reply: inactive

====

biological target: Peroxisome proliferator-activated receptor delta (Homo sapiens); test: qHTS assay to identify small molecule antagonists of the peroxisome proliferator-activated receptor delta (PPARd) signaling pathway (AID 743215); conditions: HEK293H PPARd-UAS-bla, beta-lactamase FRET ratio, antagonist, 17 h; series mostly up to 62 µM;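 further: cells stimulated with agonist L165041 at 300 nM final during compound exposure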
Results filed as inconclusive are left out. Activity calls are given as the source filed them. The call rests on the fitted dose curve; in most records, active means well fitted inhibition curve with a large enough effect in the signal ratio in the repeat runs (not every such curve was filed as active); inconclusive means weak or mixed curves, or effect the other way; inactive means no such curve, though single readings can be large or run the other way; the % refers to the signal ratio.
Log the outcome using a class from active, inactive

Reference set, count: 3
{"Molecule": "CC(C)=C1CC[C@@H](C)CC1=O", "Tested Target": "Peroxisome proliferator-activated receptor delta (Homo sapiens)", "Assigned Label": "inactive"}
{"Molecule": "Cc1nc(Nc2ncc(C(=O)Nc3c(C)cccc3Cl)s2)cc(N2CCN(CCO)CC2)n1", "Tested Target": "Peroxisome proliferator-activated receptor delta (Homo sapiens)", "Assigned Label": "active"}
{"Molecule": "O=C1NC2CCCCN2C12CCN(CCCN1c3ccccc3CCc3ccc(Cl)cc31)CC2 (stereo not drawn)", "Tested Target": "Peroxisome proliferator-activated receptor delta (Homo sapiens)", "Assigned Label": "active"}

As a next step, examine the molecule that follows.
Task item: Hi team, can someone confirm the assay call for `Cc1ccc(CCn2c3c(c4cc(Cl)ccc42)CN(C)CC3)cn1` ?
Reply: inactive

====

test: qHTS assay to identify small molecule antagonists of the estrogen receptor alpha (ER-alpha) signaling pathway using the BG1 cell line (AID 743080); conditions: BG1Luc4E2 ERE-luciferase antagonist mode, luminescence;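 further: BG1 cells stimulated with 17beta-estradiol alongside compound; nearly all actives have a fitted effect of over 25% in size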
Results filed as inconclusive are left out. Activity calls are given as the source filed them. Calls follow the shape of the full dose curve.
Log the outcome using a class from active, inactive

Reference set, count: 6
{"Molecule": "COc1cc(C=C2CCC/C(=C\\c3ccc(O)c(OC)c3)C2=O)ccc1O", "Assigned Label": "inactive"}
{"Molecule": "CC=O", "Assigned Label": "active"}
{"Molecule": "CCCN(CCc1cccs1)[C@H]1CCc2c(O)cccc2C1", "Assigned Label": "inactive"}
{"Molecule": "CCCCCCCC/C=C\\CCCCCCCC(=O)OCCOC(=O)CCCCCCC/C=C\\CCCCCCCC", "Assigned Label": "inactive"}
{"Molecule": "C1CC(COCC2CO2)CCC1COCC1CO1 (configuration not stated)", "Assigned Label": "inactive"}
{"Molecule": "O=Cc1ccc(F)cc1", "Assigned Label": "inactive"}

Task item: Hi team, can someone confirm the assay call for `COc1cc(C(=O)NS(=O)(=O)c2ccccc2C)ccc1Cc1cn(C)c2ccc(NC(=O)OC3CCCC3)cc12` ?
Reply: inactive

Task item: Input `O=C(Nc1ccc(Cl)c(Cl)c1)c1cc(Cl)cc(Cl)c1O`
Reply: active

Task item: Input CSc1ccc2c(c1)N(CCC1CCCCN1C)c1ccccc1S2 (configuration not stated)
Reply: inactive

Task item: Input `Cn1cnc2ncnc(N)c21`
Reply: inactive

Task item: Input C=CC(C)(CCC=C(C)C)OC(=O)/C=C/c1ccccc1 (configuration not stated)
Reply: inactive

Task item: Input `Oc1ccc(-c2ccccc2)c(Cl)c1`
Reply: inactive
